- TARGET_DESC: Human PDE4A3 (Homo sapiens (Human))
- Sequence (P27815 other isoform, or with tags, fused parts or gaps): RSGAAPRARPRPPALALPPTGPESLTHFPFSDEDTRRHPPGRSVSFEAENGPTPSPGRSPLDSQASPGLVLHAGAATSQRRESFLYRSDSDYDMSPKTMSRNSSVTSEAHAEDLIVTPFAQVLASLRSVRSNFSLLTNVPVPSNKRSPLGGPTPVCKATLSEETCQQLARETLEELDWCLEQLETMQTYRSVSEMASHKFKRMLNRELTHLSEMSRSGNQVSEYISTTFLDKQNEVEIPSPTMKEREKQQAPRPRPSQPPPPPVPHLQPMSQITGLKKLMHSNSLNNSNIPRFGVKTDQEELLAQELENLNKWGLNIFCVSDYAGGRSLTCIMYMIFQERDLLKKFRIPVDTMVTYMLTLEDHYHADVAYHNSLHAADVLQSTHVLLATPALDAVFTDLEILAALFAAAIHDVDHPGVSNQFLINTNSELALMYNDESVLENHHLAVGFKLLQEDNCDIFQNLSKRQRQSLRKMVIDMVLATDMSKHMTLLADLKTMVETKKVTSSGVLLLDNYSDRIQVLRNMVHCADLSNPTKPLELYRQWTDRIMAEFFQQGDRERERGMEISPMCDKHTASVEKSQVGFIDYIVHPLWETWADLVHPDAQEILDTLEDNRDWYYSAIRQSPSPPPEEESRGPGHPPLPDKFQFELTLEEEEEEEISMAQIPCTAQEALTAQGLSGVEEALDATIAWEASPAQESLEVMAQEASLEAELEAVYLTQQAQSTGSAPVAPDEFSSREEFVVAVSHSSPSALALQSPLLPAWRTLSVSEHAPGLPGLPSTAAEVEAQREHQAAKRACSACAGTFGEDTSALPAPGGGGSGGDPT
- ASSAY: PDE4A3 Scintillation Proximity Assay (SPA), inhibition of enzyme activity
- Format: biochemical
- PARTICULARS: Table 9, geometric mean of 2-9 determinations unless otherwise indicated, read-out: Human PDE4A FL
- Protocol: The PDE4A, PDE4B, PDE4C and PDE4D binding affinity for the compounds of the present invention was determined utilizing the following biological assay(s): The recombinant Bacmid was isolated and used to transfect insect cells to generate a viral stock. To generate cell paste for purification, insect cells were infected with the virus stock and cells were harvested 72 hours after infection. […] Fractions were analyzed using SDS-PAGE Coomassie blue staining and pooled based on purity. […]
QUANTITY: IC50 (nM)

Cc1cc(Cl)ccc1-c1c2n(c3cccnc13)CCN(c1ncccn1)C2=O [Example 73]
7.66
N#Cc1ccc(-c2c3n(c4cccnc24)CCN(C2CC2)C3=O)c(F)c1 [Example 22]
7.47
COc1ccc(-c2c3n(c4cccnc24)CCN(C2CC2)C3=O)cc1F [Example 45]
1.59
O=C1c2c(-c3ccc(Cl)cc3)c3ncccc3n2CC2COCCN12 (stereo not drawn) [Example 63]
219
Cc1ccc(-c2c3n(c4cccnc24)CCN(C2CC2)C3=O)cc1 [Example 20]
2.52
O=C1c2c(-c3ccc(Cl)cc3)c3nccnc3n2CCN1C1CC1 [Example 18]
4.12
O=C1c2c(-c3cccc(Cl)c3)c3ncccc3n2CCN1C1CC1 [Example 48]
1
Cc1cc(F)ccc1-c1c2n(c3cccnc13)CCN(C1CC1)C2=O [Example 49]
2.71

(a) O=C1c2c(-c3ccc(Cl)cc3)c3ccccc3n2CCN1C1CC1 [Example 12]
(b) O=C1c2c(-c3ccc4c(c3)CCO4)c3ncccc3n2CCN1C1CC1 [Example 35]
(c) O=C1c2c(-c3ccc(Cl)cc3)c3ncccc3n2CC2CCN12 (single isomer, unassigned) [Example 68]
Put the items in order so that reported IC50 rises from first to last. Output spec: labels arranged per the requested ranking. b, a, c
(b: 2.08 nM, a: 12 nM, c: 26 nM)

(P) O=C1c2c(-c3ccc4ncnn4c3)c3ncccc3n2CCN1C1CC1 [Example 58]
(Q) O=C1c2c(-c3cc(F)ccc3F)c3ncccc3n2CCN1C1CC1 [Example 46]
Which of the two gives a bigger number for IC50: P or Q ? To answer, give the label that identifies your chosen option. P
(P: 12.6 nM, Q: 2.29 nM)

Values were extracted from patent US11472805B2.
